Ref: paper PMC12392461

Tested system: Estrogen Receptor ERα (Homo sapiens, UniProt P03372)
Sequence (P03372 311-547 limits assumed): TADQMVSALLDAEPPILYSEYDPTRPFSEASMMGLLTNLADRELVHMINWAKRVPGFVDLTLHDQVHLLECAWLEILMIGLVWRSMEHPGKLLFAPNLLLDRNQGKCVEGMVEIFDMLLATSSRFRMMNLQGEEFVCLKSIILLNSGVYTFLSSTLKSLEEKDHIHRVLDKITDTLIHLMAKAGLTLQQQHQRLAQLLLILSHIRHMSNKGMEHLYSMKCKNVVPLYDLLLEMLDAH
Assay info: aCYP oxidation followed by ERα-UAS-bla GripTite assay (TK-Ratio of effect)
Format: cell-based
Condition summary: Table S10; ERα; in M
Measured endpoint: EC10, before oxidation

Compound	Observed result
CC1(C)[C@H](O)C(C)(C)[C@H]1O [t-TMCD]	3.18E-03
Oc1ccc(Cc2ccc(O)cc2)cc1 [BPF, Bis(4-hydroxyphenyl)methane]	9.67E-07
CC(C)(c1ccc(O)cc1)c1ccc(O)cc1 [BPA, 4,4'-(Propane-2,2-diyl)diphenol, reference compound]	3.70E-07
CCC(C)(c1ccc(O)cc1)c1ccc(O)cc1 [BPB, 4,4'-(Butane-2,2-diyl)diphenol]	1.07E-07
O=C(OCc1ccccc1)c1ccc(O)cc1 [BzPB, Benzyl 4-hydroxybenzoate]	3.07E-06
